# hCD71:HSA values compiled below
TARGET_OR_TEST_SYSTEM: T1, human CD71 extracellular domain (human, UniProt P02786 89-760, biotinylated)
T1 construct: also called hCD71; CD71-ECD
T1 sequence (P02786 89-760): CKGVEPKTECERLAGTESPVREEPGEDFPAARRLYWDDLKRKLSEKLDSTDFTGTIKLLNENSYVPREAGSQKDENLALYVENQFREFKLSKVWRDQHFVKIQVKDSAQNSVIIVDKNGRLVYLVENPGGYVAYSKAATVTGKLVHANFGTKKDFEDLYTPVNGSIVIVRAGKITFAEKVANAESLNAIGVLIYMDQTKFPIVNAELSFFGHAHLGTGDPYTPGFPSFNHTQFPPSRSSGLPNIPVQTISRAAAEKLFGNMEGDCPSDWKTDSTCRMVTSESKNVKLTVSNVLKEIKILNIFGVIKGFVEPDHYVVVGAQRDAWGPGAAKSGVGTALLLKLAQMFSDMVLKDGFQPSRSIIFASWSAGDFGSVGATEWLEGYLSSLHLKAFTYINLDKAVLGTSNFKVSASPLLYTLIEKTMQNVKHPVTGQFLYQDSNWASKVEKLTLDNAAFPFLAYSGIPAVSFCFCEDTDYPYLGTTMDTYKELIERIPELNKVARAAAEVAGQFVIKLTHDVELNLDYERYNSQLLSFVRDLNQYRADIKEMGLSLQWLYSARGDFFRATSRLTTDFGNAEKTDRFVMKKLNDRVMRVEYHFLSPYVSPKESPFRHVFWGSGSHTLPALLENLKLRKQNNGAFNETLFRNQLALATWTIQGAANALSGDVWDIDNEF
PROCEDURE_TEXT: primary ELISA, RLU over HSA
ASSAY_READOUT: hCD71:HSA

BINDER: CD71-binding FN3 domain of SEQ ID NO: 490 (designed binder) MLPAPKNLVVSRVTEDSARLSWTAPDAAFDSFFIGYLEPQPPGEAISLQVPGSERSYDLTGLKPGTEYNVTIQGVKGGFPSAPLVANFTT
ASSAY_READOUT: hCD71:HSA
RECORDED_RESULT: 403
//
BINDER: CD71-binding FN3 domain of SEQ ID NO: 466 (designed binder) MLPAPKNLVVSRVTEDSARLSWTAPDAAFDSFYIAYAEPRPDGEAIWLLVPGSERSYDLTGLKPGTEYSVLIHGVKGGLLSSPLSADFTT
ASSAY_READOUT: hCD71:HSA
RECORDED_RESULT: 70
//
BINDER: CD71-binding FN3 domain of SEQ ID NO: 501 (designed binder) MLPAPKNLVVSRVTEDSARLSWTAPDAAFDSFFIGYLEPQPPGEAISLLVPGSERSYDLTGLKPGTEYNVTIQGVKGGFPSVPLSAIFTT
ASSAY_READOUT: hCD71:HSA
RECORDED_RESULT: 399
//
BINDER: CD71-binding FN3 domain of SEQ ID NO: 522 (designed binder) MLPAPKNLVVSRVTEDSARLSWTAPDAAFDSFFIGYLEPQPPGEAITLYVPGSERSYDLNGLKPGTEYNVTIQGVKGGFPSMPLSAIFTT
ASSAY_READOUT: hCD71:HSA
RECORDED_RESULT: 318
